biological target: T1, full-length trimeric SARS-CoV-2 Spike protein (Spike-H6) (SARS-CoV-2, N-glycosylated (22 N-glycosylation sites)); experiment: ELISA screen
T1 construct: also called trimeric Spike; full-length Spike-H6
Short version: Mean normalized OD at least 0.002 OD is criterion met, less is criterion not met.

Some solved cases for reference:
BINDER	LABEL CLASS
Mrc1_2 CRD-mouse IgG2a-Fc fusion protein (Fc fusion) YAGHCYRIHREEKKIQKYALQACRKEGGDLASIHSIEEFDFIFSQLGYEPNDELWIGLNDIKIQMYFEWSDGTPVTFTKWLPGEPSHENNRQEDCVVMKGKDGYWADRACEQPLGYICKGGGSGGGSGGGS	criterion not met
Klri2 CRD-mouse IgG2a-Fc fusion protein (Fc fusion) FGNNFYCVFRENSKTWVESQSACEELNSHLVIIDSKAEVENLLLFEMDGWILHRMDGTNSSRLWGNDIKIRNTLMNDSEKKNHSCHYLRGNIFMPDECSAKKTYICEGGGSGGGSGGGS	criterion met
Pkd1 CRD-mouse IgG2a-Fc fusion protein (Fc fusion) GNGHCYRLVAEKAPWLQAQEQCRTWAGAALAMVDSPAIQHFLVSKVTRSLDVWIGFSSVEGTEGLDPRGEAFSLESCQNWLPGEPHPATAEHCVRLGPAGQCNTDLCSAPHSYVCEGGGSGGGSGGGS	criterion not met

Task: Tell me whether Mean normalized OD is at least 0.002 OD here: Clec2i CRD-mouse IgG2a-Fc fusion protein (Fc fusion) VGNKCFYFSGYPRNWTFAQAFCMAQEAQLARFDNEEELIFLKRFKGDFDCWIGLHRESSEHPWKWTNNTEYNNMNPILGVGRYAYLSSDRISSSRSYINRMWICSGGGSGGGSGGGS
Result: criterion not met

Task: Tell me whether Mean normalized OD is at least 0.002 OD here: Clec1b CRD-mouse IgG2a-Fc fusion protein (Fc fusion) HGDSCYGFFRRNLTWEESKQYCTEQNATLVKTASQSTLDYIAERITSVRWIGLSRQNSKKDWMWEDSSVLRKNGINLSGNTEENMNCAYLHNGKIHPASCKERHYLICEGGGSGGGSGGGS
Result: criterion met

Task: Tell me whether Mean normalized OD is at least 0.002 OD here: Clec11a CRD-mouse IgG2a-Fc fusion protein (Fc fusion) LGHKCFLLSRDFETQAAAQARCKARGGSLAQPADRQQMDALSRYLRAALAPYNWPVWLGVHDRRSEGLYLFENGQRVSFFAWHRAFSLESGAQPSAATHPLSPDQPNGGVLENCVAQASDDGSWWDHDCERRLYFVCEGGGSGGGSGGGS
Result: criterion met
